# Lookup of reported melting point keyed by entry

Here is how some molecules turned out for melting point.
> print(dat)
                                   molecule  experimental.value
1  C[C@H](O)[C@@H](CCOc1cccc(-c2ccc(Cl)nc2)c1)n1cnc(C(N)=O)c1 [Example 87]       166 to 168 °C
2  C[C@H](O)[C@H](CSc1cccc2ccccc12)n1cnc(C(N)=O)c1.Cl     > 168 °C (dec.)
3  C[C@H](O)[C@@H](CCOc1ccc(-c2ccccc2)cc1)n1cnc(C(N)=O)c1 [Example 28]       191 to 193 °C
4  C[C@H](O)[C@@H](CCOc1ccc2c(ccn2C)c1)n1cnc(C(N)=O)c1 [Example 75]     211 to 213.5 °C

melting point for C[C@H](O)[C@H](CSc1ccc2ccccc2c1)n1cnc(C(N)=O)c1 [Example 102] ?
> 108 °C (dec.)

One more molecule: C[C@H](O)[C@@H](COc1ccc(Cl)c(Cl)c1)n1cnc(C(N)=O)c1 [Example 81]
115 to 121 °C

One more molecule: C[C@H](O)[C@H](CSc1cccc(Cl)c1Cl)n1cnc(C(N)=O)c1 [Example 104]
> 120 °C (dec.)

One more molecule: C[C@H](O)[C@@H](CCOc1ccc2ccc(Cl)cc2c1)n1cnc(C(N)=O)c1 [Example 97]
139 to 141 °C
